For each record, write down the corresponding RP-LC retention time.
Assay: gradient 5% acetonitrile 3 min, to 50% in 2 min, to 85% in 15 min, held 3 min, 100 µL/min
Settings: column: Zorbax Extend-C18 2.1 x 50 mm; eluents: water / acetonitrile, 0.1% formic acid
Only the number, expressed in s, is required.

Per the record, COc1ccccc1C(CNC(=O)c1cc(=O)c2c(C)cc(C)cc2o1)N(C)C (stereo not given) has RP-LC retention time of 645

Per the record, `CN1CCN(C(=O)c2ccc(CN3CCN(Cc4ccc(F)cc4)C(=O)C3=O)cc2)CC1` has RP-LC retention time of 592

Per the record, COc1ccc(S(=O)(=O)N(C)C2CCc3nn(CC4CC4)c(=O)n3CC2)cc1Cl (stereo not given) has RP-LC retention time of 810

Per the record, `O=C(Nc1cccc2cccnc12)C1CCN(c2ccc(-n3cccn3)nn2)CC1` has RP-LC retention time of 745

Per the record, `O=C(C1CCN(c2cncnc2N2CCCCC2)CC1)N1CCOCC1` has RP-LC retention time of 593

* * *

Assay: gradient 5% acetonitrile 3 min, to 50% in 2 min, to 85% in 15 min, held 3 min, 100 µL/min
Conditions: column: Zorbax Extend-C18 2.1 x 50 mm; eluents: water / acetonitrile, 0.1% formic acid
For each record, write down the corresponding RP-LC retention time.
Only the number, expressed in s, is required.

Per the record, CCC(=O)N1CCC(c2noc(CO)n2)C1 (stereo not given) has RP-LC retention time of 545

Per the record, `O=C(Nc1ccc2c(c1)OCO2)N1CCC2(CC1)Nc1cc(F)ccc1-n1cccc12` has RP-LC retention time of 1000

Per the record, CCOC(=O)c1c(C)[nH]c(CCC(=O)NC(C)CC)c1C (stereo not given) has RP-LC retention time of 762

Per the record, `O=C(c1sc2ncccc2c1-n1cccc1)N1CCN(c2ncccn2)CC1` has RP-LC retention time of 866

Per the record, `COc1cc(NS(=O)(=O)c2ccc(N)cc2)nc(OC)n1` has RP-LC retention time of 680

Per the record, CCCN1CCN(C(=O)C(CC)n2c3ccccc3c3cnn(C)c(=O)c32)CC1 (stereo not given) has RP-LC retention time of 618

Per the record, `CCN(CC)C(=O)c1ccc(-c2nc3cc(NS(=O)(=O)c4ccccc4)ccc3n2C)cc1` has RP-LC retention time of 671

Per the record, `CNC(=O)c1csc(N2CCCC2)n1` has RP-LC retention time of 671

Per the record, `Cc1cc2nc(C(=O)Nc3ccc(F)c(Cl)c3)cc(C)n2n1` has RP-LC retention time of 1080

Per the record, `O=C(CCc1csc(NC(=O)c2cccs2)n1)Nc1ccc2c(c1)OCCO2` has RP-LC retention time of 733

Per the record, CC1CCN(CCCNC(=O)C2(O)c3ccccc3NC(=O)N2c2ccc(Cl)cc2)CC1 (stereo not given) has RP-LC retention time of 582

Per the record, CCCn1c(=O)sc2cc(S(=O)(=O)N3CCC(C(=O)NCC4CCCO4)CC3)ccc21 (stereo not given) has RP-LC retention time of 763

Per the record, `COC(=O)c1cccc(Nc2c(-c3ccc(F)cc3)nc3cnc(Br)cn23)c1` has RP-LC retention time of 980

Per the record, `O=C(NCCN1CCOCC1)c1cccc(Nc2c(-c3ccc(Cl)cc3)nc3cnccn23)c1` has RP-LC retention time of 599

Per the record, `COc1ccc(NC(=O)CCc2cccc3[nH]ccc23)cc1OC` has RP-LC retention time of 755

Per the record, O=C(NCC1CCCO1)C1CCN(c2ncnc3c2oc2ccccc23)CC1 (stereo not given) has RP-LC retention time of 618

Per the record, `COCCN(Cc1cccs1)C(=O)c1nnn(-c2ccccc2)c1-c1ccccn1` has RP-LC retention time of 824

Per the record, `COc1ccc(-n2nc(SCC(=O)Nc3ccc(F)c(F)c3)ccc2=O)cc1` has RP-LC retention time of 772

Per the record, `CC(C)n1c(=O)oc2cc(-c3noc(-c4ccc5cc[nH]c5c4)n3)ccc21` has RP-LC retention time of 1100

Per the record, Cc1nc(-c2csc(S(=O)(=O)N3CCCC(C(=O)Nc4ccc(F)c(F)c4)C3)c2)no1 (stereo not given) has RP-LC retention time of 1020

* * *

For each record, write down the corresponding RP-LC retention time.
Experiment: gradient 5% acetonitrile 3 min, to 50% in 2 min, to 85% in 15 min, held 3 min, 100 µL/min
Conditions: column: Zorbax Extend-C18 2.1 x 50 mm; eluents: water / acetonitrile, 0.1% formic acid
Only the number, expressed in s, is required.

Per the record, `CCOC(=O)c1c(NC(=O)CSc2n[nH]c(N)n2)sc(C)c1C` has RP-LC retention time of 696

Per the record, `COc1ccc(-c2nc3nc(C)cc(C)n3c2Nc2ccccc2C)cc1` has RP-LC retention time of 742

Per the record, `O=C(Cc1cccs1)N1CCN(c2ccc(-c3ccco3)nn2)CC1` has RP-LC retention time of 734

Per the record, `C[C@@H]1O[C@@H](O[C@H]2[C@H](Oc3cc(O)c(C(=O)CCc4ccc(O)cc4)c(O)c3)O[C@H](CO)[C@@H](O)[C@@H]2O)[C@H](O)[C@H](O)[C@H]1O` has RP-LC retention time of 650

* * *

Experiment: gradient 5% acetonitrile 3 min, to 50% in 2 min, to 85% in 15 min, held 3 min, 100 µL/min
Conditions: column: Zorbax Extend-C18 2.1 x 50 mm; eluents: water / acetonitrile, 0.1% formic acid
Entries whose RP-LC retention time is below 800 s take criterion met; entries at or above 800 s take criterion not met.

Given `Cc1oc(-c2[nH]ncc2C(=O)N(C)C)cc1S(=O)(=O)Nc1cc(F)cc(F)c1` , is recorded RP-LC retention time strictly lower than 800 s?
criterion not met

Given `CSc1ccc(NC(=O)c2ccccc2C(F)(F)F)nn1` , is recorded RP-LC retention time strictly lower than 800 s?
criterion met

Given CC(=O)N1CCc2cc(N3CC(C(=O)NCc4cccnc4)CC3=O)ccc21 (stereo not given) , is recorded RP-LC retention time strictly lower than 800 s?
criterion met

Given `O=c1oc2cc(O)ccc2cc1-c1cc(F)cc(F)c1` , is recorded RP-LC retention time strictly lower than 800 s?
criterion not met

Given `Cc1ccc(NC(=O)c2cn(C)nc2S(=O)(=O)N2CCSCC2)cc1F` , is recorded RP-LC retention time strictly lower than 800 s?
criterion not met

Given `CSc1cccc(NC(=O)CCc2c(-c3ccccc3)nc3ccccn23)c1` , is recorded RP-LC retention time strictly lower than 800 s?
criterion met

Given `Cc1ccc(S(=O)(=O)N2CCc3nc(-c4ccc(Cl)cc4)ncc3C2)cc1` , is recorded RP-LC retention time strictly lower than 800 s?
criterion not met

Given `Cc1ncoc1C(=O)N1CCCCCNC(=O)[C@@H]2CCC[C@@H]21` , is recorded RP-LC retention time strictly lower than 800 s?
criterion met

Given `COc1ccc(-c2nnc(N3CCC(C(=O)N4CCC5(CC4)OCCO5)CC3)o2)cc1` , is recorded RP-LC retention time strictly lower than 800 s?
criterion met

* * *

Experiment: gradient 5% acetonitrile 3 min, to 50% in 2 min, to 85% in 15 min, held 3 min, 100 µL/min
Conditions: column: Zorbax Extend-C18 2.1 x 50 mm; eluents: water / acetonitrile, 0.1% formic acid
Rule: RP-LC retention time of 800 s or more gives Criterion met; anything lower gives Criterion not met.

Decide: is the reported value of RP-LC retention time for `CC1=C(c2ccccc2)S(=O)(=O)N=C1N1CCCN(C(=O)c2cc(F)ccc2F)CC1` equal to or greater than 800 s?
Criterion met

Decide: is the reported value of RP-LC retention time for `CCc1ccccc1NS(=O)(=O)c1cc2n(c1)CCN(CC)C2=O` equal to or greater than 800 s?
Criterion not met

Decide: is the reported value of RP-LC retention time for O=C(Nc1ccc(-c2nc(-c3ccccc3)no2)cc1)C1CC(=O)N(C2CCCCC2)C1 (centres undefined) equal to or greater than 800 s?
Criterion met

Decide: is the reported value of RP-LC retention time for `CCSc1nnc(NC(=O)CCCn2nc(-c3ccc(OC)cc3)ccc2=O)s1` equal to or greater than 800 s?
Criterion not met

Decide: is the reported value of RP-LC retention time for `CNC(=O)[C@@H]1CN(C(=O)c2cccc(Br)c2)C[C@H]1CO` equal to or greater than 800 s?
Criterion not met

Decide: is the reported value of RP-LC retention time for `CN1CCn2cc(S(=O)(=O)N3CCN(c4ccccc4)CC3)cc2C1=O` equal to or greater than 800 s?
Criterion not met

Decide: is the reported value of RP-LC retention time for O=C(NCc1ccc(F)cc1)C1CCN(C(=O)c2ncn3c2COC(c2ccc(Cl)cc2)C3)CC1 (centres undefined) equal to or greater than 800 s?
Criterion met

Decide: is the reported value of RP-LC retention time for COc1cc(C2CC(=O)c3c(C)nc(N4CCN(C)CC4)nc3C2)cc(OC)c1OC (centres undefined) equal to or greater than 800 s?
Criterion not met

Decide: is the reported value of RP-LC retention time for `O=C(Nc1cccc(F)c1)C(=O)c1ccc[nH]1` equal to or greater than 800 s?
Criterion met

Decide: is the reported value of RP-LC retention time for `CCc1ccc(NC(=O)N2C[C@@H]3CN(S(=O)(=O)c4ccccc4)C[C@H](C2)O3)cc1` equal to or greater than 800 s?
Criterion met

Decide: is the reported value of RP-LC retention time for `CCOC(=O)c1cnc2c(-c3cccc(Cl)c3)c(C)nn2c1N` equal to or greater than 800 s?
Criterion met

Decide: is the reported value of RP-LC retention time for `COc1ccc(OC)c(NC(=O)C2CCN(c3cc(N4CCCCC4)ncn3)CC2)c1` equal to or greater than 800 s?
Criterion not met

Decide: is the reported value of RP-LC retention time for `CCN(CC)C(=O)c1cnc2snc(C)c2c1N1CCC(C(=O)Nc2ccc(Br)c(C)c2)CC1` equal to or greater than 800 s?
Criterion met

Decide: is the reported value of RP-LC retention time for O=C(Nc1ccc(F)c(F)c1)C1CCc2nc(N3CCOCC3)ncc2C1 (centres undefined) equal to or greater than 800 s?
Criterion not met

Decide: is the reported value of RP-LC retention time for `CCNc1cc(N2CCC(CCC(=O)N3CCN(C(C)=O)CC3)CC2)ncn1` equal to or greater than 800 s?
Criterion not met

Decide: is the reported value of RP-LC retention time for `CCCc1nc(-c2c(C)cc(C)nc2NC(=O)c2cc(F)cc(F)c2)no1` equal to or greater than 800 s?
Criterion met

Decide: is the reported value of RP-LC retention time for `O=C(CCn1c(N2CCCC2)nc2ccsc2c1=O)Nc1cccc(Cl)c1` equal to or greater than 800 s?
Criterion met

Decide: is the reported value of RP-LC retention time for `COc1ccc(S(=O)(=O)N2CCc3c(c(-c4nnc(-c5ccccc5)o4)nn3C)C2)cc1Cl` equal to or greater than 800 s?
Criterion met
